- Tested on: Plasmodium berghei (Pb-Luc) exoerythrocytic-stage parasites
- Assay Remarks: microbe, parasite or virus in culture
- Condition Details: read-out: Inhibition% @ 50 uM rep2
Parameter: inhibition at 50 µM
Just so you know, I need the unit written after the number.

## Task What does the data say about its inhibition at 50 µM? Entry: O=C(Nc1ccc(CN2CCOCC2)cc1)c1ccc(-c2cc(Cl)ccc2Cl)o1 [MMV020651]
## Result 99%

## Task Name the reported inhibition at 50 µM value associated with the compound COc1ccc(C2N(C)c3ccccc3N2C)cc1 [MMV666075]
## Result 98%

## Task Look at this compound and give its reported inhibition at 50 µM. Nc1ccc(-c2nc3cc(Cc4ccc5[nH]c(-c6ccc(N)cc6)nc5c4)ccc3[nH]2)cc1 [MMV665943]
## Result 104%

## Task Recorded inhibition at 50 µM for CCN(Cc1ccccc1)C1CCN(Cc2cc(Br)ccc2O)CC1 [MMV019127] , please?
## Result 104%

## Task Could you tell me which inhibition at 50 µM is on file for COc1ccc(-c2cc3c(nn2)-c2ccccc2C3=O)cc1 [MMV666026] ?
## Result 71%

## Task Given the entry CC(C)(C)c1ccc(C(=O)Nc2c3c(nn2-c2cccc(Cl)c2)CSC3)cc1 [MMV666123] , report its measured inhibition at 50 µM.
## Result 102%

## Task Look up inhibition at 50 µM for this compound: CC1(c2ccccc2)Nc2ccccc2-c2nc3ccccc3n21 (stereo not drawn) [MMV396715]
## Result 106%

## Task Could you share which inhibition at 50 µM value was measured for CCOC(=O)C1=C(C)N=c2sc(=Cc3ccccc3O)c(=O)n2C1c1ccc(OC)c2ccccc12 (stereo not drawn) [MMV666604] ?
## Result 33%

## Task // query inhibition at 50 µM value for entry Nc1nc(Nc2cccc(F)c2)nc2ccccc12 [MMV080034]
## Result 103%

* * *

- System: HepG2-A16-CD81EGFP cells
- Assay Remarks: cells
- Condition Details: Homo sapiens, HepG2, read-out: % inhibition
Parameter: inhibition at 50 µM (%)
Value expressed in %; do not type the unit.

## Task # query: inhibition at 50 µM of entry COc1ccc(-n2ccnc2SCC(=O)Nc2cc(C)ccc2C)c(OC)c1 [MMV019258]
## Result 63.1

## Task So what does the record say about inhibition at 50 µM for CNCCCNc1ccnc2cc(Cl)ccc12 [MMV020500] ?
## Result 101

## Task Field request: inhibition at 50 µM | item: CCN(CC)c1cc(C)c2cc(NC(=O)c3cccc(OC)c3)ccc2n1 [MMV000498]
## Result 99.5

## Task Please report the recorded inhibition at 50 µM for O=C(Nc1ccc(C23CC4CC(CC(c5ccccc5)(C4)C2)C3)cc1)c1cccs1 [MMV007574] .
## Result 83.6

## Task If you can, please state the reported inhibition at 50 µM value of CN(C)c1ccc(N2C(N)=NC(N)=NC2(C)C)cc1 [MMV667487] .
## Result -8.72

## Task Item Nc1nc(Nc2cccc(F)c2)nc2ccccc12 [MMV080034] has what recorded inhibition at 50 µM?
## Result 81.8

## Task Look up inhibition at 50 µM: O=C(Cc1ccccc1)NC(c1ccc(Cl)cc1)c1c(O)ccc2ccccc12 (centres unmarked) [MMV665972]
## Result 97.4

## Task Look up inhibition at 50 µM: CCCN(CCC)CC(O)COc1ccccc1C(=O)Nc1ccccc1 (centres unmarked) [MMV006455]
## Result -8.15

## Task I am curious: what inhibition at 50 µM value has been reported for Nc1ccn([C@@H]2O[C@H](CO)[C@@H](O)[C@H]2O)c(=O)n1 [MMV638723] ?
## Result 3.04

## Task Which inhibition at 50 µM reading was recorded for the molecule COc1ccc(C(O)(CCC(C)C)C(CN2CCOCC2)c2ccc(Cl)cc2)cc1 (centres unmarked) [MMV000617] ?
## Result 98.4

## Task # query: inhibition at 50 µM of entry OC(CNC1CCCCC1)Cn1c2ccccc2c2ccccc21 (centres unmarked) [MMV009063]
## Result 98.6

## Task Looking for the measured inhibition at 50 µM of O=c1cc(NC2CCN(CCCc3ccccc3)CC2)c2cc(Cl)ccc2o1 [MMV665786] , can you help?
## Result 80.6

## Task Bench note: what inhibition at 50 µM did Oc1ccc(C(=C(Cl)Cl)c2ccc(O)cc2)cc1 [MMV665949] show?
## Result 87.2

## Task For the molecule shown here, Oc1ccc(Br)cc1CN1CCN(Cc2ccc(Cl)cc2)CC1 [MMV665809] , give the reported inhibition at 50 µM.
## Result 93.9

## Task Which inhibition at 50 µM is listed for CCc1c(C)c(=N)c2ccccc2n1C [MMV006278] ?
## Result 71

## Task Which measured inhibition at 50 µM value corresponds to COc1ccc(C=C2SC(=N)N(c3ccccc3OC)C2=O)cc1 [MMV666691] ?
## Result 94.9

## Task Which inhibition at 50 µM value belongs to COc1ccc(C(=O)NC(c2ccccc2Cl)c2cc(Cl)c3cccnc3c2O)cc1 (centres unmarked) [MMV666022] ?
## Result 99.5

## Task So what's the measured inhibition at 50 µM for this one? CCC(c1ccccc1)c1nn2c(-c3cccs3)nnc2s1 (centres unmarked) [MMV665876]
## Result 93.6

## Task Quick one: inhibition at 50 µM of CCOc1ccc2nc(C)cc(Nc3ccc(Br)cc3)c2c1 [MMV006522] ?
## Result 98.8

## Task # get_value(readout='inhibition at 50 µM', item= COc1ccc(N2CCN(C(CNC(=O)CC(C)(C)C)c3ccc4c(c3)OCO4)CC2)cc1 (centres unmarked) [MMV665908] )
## Result -9.68

## Task Which value of inhibition at 50 µM has been reported for COc1ccc(C=C2SC(Nc3ccccc3)=NC2=O)cc1 [MMV665836] in the records?
## Result 83.2

## Task Query: inhibition at 50 µM; subject: CCOc1ccc(-c2nc(NC(=O)c3cccc(S(C)(=O)=O)c3)sc2C)cc1 [MMV665913]
## Result 60.5

## Task Can you look up the measured inhibition at 50 µM of CC1CCN(Cc2c(O)ccc3cc(-c4nc5ccccc5s4)c(=O)oc23)CC1 [MMV009127] for me?
## Result -10.1

## Task Returns the measured inhibition at 50 µM for the input molecule. Input: CCOC(=O)C1=C(c2ccccc2)N=c2sc(=Cc3cc(C)n(-c4ccc(F)cc4)c3C)c(=O)n2C1c1cccc(OC)c1OC (centres unmarked) [MMV666601]
## Result -7.05

## Task What value of inhibition at 50 µM has been recorded for this entry: O=C(Nc1cccc(-c2nc3ccccc3[nH]2)c1)c1cccc(NC(=O)c2ccco2)c1 [MMV665883]
## Result 97.2

## Task Request the reported inhibition at 50 µM associated with CN(C)CCCNc1c2ccccc2nc2ccccc12 [MMV000448]
## Result 96.8

## Task I am curious: what inhibition at 50 µM value has been reported for CCN(CC)S(=O)(=O)c1ccc(-c2csc(Nc3ccc(C)c(C)c3)n2)cc1 [MMV009108] ?
## Result 72.2

## Task I'd like to know its inhibition at 50 µM. The molecule in question is COCCN(C(=O)Cc1cccs1)C(C(=O)NCc1ccc(OC)cc1)c1ccc(C(C)C)cc1 (centres unmarked) [MMV666105]
## Result 98.8

## Task Item under review: Oc1ccccc1CN1CCN(C(c2ccccc2)c2ccccc2)CC1 [MMV011795] . Reported inhibition at 50 µM?
## Result 77.8

## Task Fill in the blank: the reported inhibition at 50 µM of CCOC(=O)c1cnc2c(C)cc(C)cc2c1Nc1ccc(OC)c(OC)c1 [MMV008294] is ____.
## Result 1.7

## Task Which inhibition at 50 µM value is on record for CCN(CC)CCCNc1ccnc2cc3ccccc3cc12 [MMV665783] ?
## Result 31.7

## Task Name the reported inhibition at 50 µM value associated with the molecule CCOc1cc(Br)c(C(C)NC(=O)c2cccc(OC)c2)cc1OCC (centres unmarked) [MMV665796]
## Result 88.4

## Task Give its inhibition at 50 µM value. Item: CCOc1ccc(N2C(N)=NC(N)=NC2(C)C)cc1 [MMV667486]
## Result -13.4

## Task # inhibition at 50 µM lookup, item COc1ccc2nc(C)cc(Nc3ccc(Cl)cc3)c2c1 [MMV007875]
## Result 94.8

## Task Can you look up the measured inhibition at 50 µM of COc1ccc(-c2cc3c(nn2)-c2ccccc2C3=O)cc1 [MMV666026] for me?
## Result 21.5

## Task Record request: inhibition at 50 µM value, item CCOC(=O)C1(Cc2ccccc2)CCN(Cc2cccc(OC)c2O)CC1 [MMV666109]
## Result 79

## Task Bench note: what inhibition at 50 µM did COCCNCC(O)Cn1c2ccc(Cl)cc2c2cc(Cl)ccc21 (centres unmarked) [MMV019017] show?
## Result 96.7

## Task What measured inhibition at 50 µM goes with COc1cc2c3cc1Oc1c(OC)c(OC)cc4c1C(Cc1ccc(O)c(c1)Oc1ccc(cc1)CC3N(C)CC2)N(C)CC4 (centres unmarked) [MMV007474] ?
## Result 99.3

Provenance of the data: paper PMC4890880
